This collection of values is drawn from patent US20140356358A1.

biological target: T1, human neonatal Fc receptor (hFcRn) (human, UniProt P55899 24-290; P61769 21-119); assay: phage ELISA pH 6;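 note: higher score means stronger binding and above about 3 to 5 exceeds background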
T1 construct: Biotinylated in the ELISA, Octet and yeast assays; also called human FcRn; huFcRn
T1 sequence (P55899 24-290 limits assumed, chain 1 of 2): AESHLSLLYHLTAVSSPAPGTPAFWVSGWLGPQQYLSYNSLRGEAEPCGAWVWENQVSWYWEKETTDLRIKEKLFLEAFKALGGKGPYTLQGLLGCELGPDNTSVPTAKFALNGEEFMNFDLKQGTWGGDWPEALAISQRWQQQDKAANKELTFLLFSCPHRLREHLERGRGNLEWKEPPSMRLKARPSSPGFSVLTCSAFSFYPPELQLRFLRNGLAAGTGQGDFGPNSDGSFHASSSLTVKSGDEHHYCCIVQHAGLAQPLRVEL
T1 sequence (P61769 21-119 limits assumed, chain 2 of 2): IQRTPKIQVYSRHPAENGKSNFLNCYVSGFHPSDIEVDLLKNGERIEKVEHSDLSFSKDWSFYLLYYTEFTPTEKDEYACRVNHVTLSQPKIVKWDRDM
Could you please report measured ELISA score for the items listed next?
Answers are plain numbers.

Example entries begin here.
binder	ELISA score
L5 isolate with insertion SEQ ID NO: 403 (other) EPKSCDKTHTCPPCPAPELLGGPSVFLFPPKPKDTLMISRTPEVTCVVVDVSHEDPEVKFNWYVDGVEVHNAKTKPREEQYNSTYRVVSVLTVLHQDWLNGKEYKCKVSNKALPAPIEKTISKAKGQPREPQVYTLPPSRDELTKNQVSLTCLVKGFYPSDIAVEWESNGGCPANWGTCGGGQPENNYKTTPPVLDSDGSFFLYSKLTVDKSRWQQGNVFSCSVMHEALHNHYTQKSLSLSPGK	74.8
L5 isolate with insertion SEQ ID NO: 470 (other) EPKSCDKTHTCPPCPAPELLGGPSVFLFPPKPKDTLMISRTPEVTCVVVDVSHEDPEVKFNWYVDGVEVHNAKTKPREEQYNSTYRVVSVLTVLHQDWLNGKEYKCKVSNKALPAPIEKTISKAKGQPREPQVYTLPPSRDELTKNQVSLTCLVKGFYPSDIAVEWESNGGCEASGQICGGGQPENNYKTTPPVLDSDGSFFLYSKLTVDKSRWQQGNVFSCSVMHEALHNHYTQKSLSLSPGK	42.4
L5 isolate with insertion SEQ ID NO: 392 (other) EPKSCDKTHTCPPCPAPELLGGPSVFLFPPKPKDTLMISRTPEVTCVVVDVSHEDPEVKFNWYVDGVEVHNAKTKPREEQYNSTYRVVSVLTVLHQDWLNGKEYKCKVSNKALPAPIEKTISKAKGQPREPQVYTLPPSRDELTKNQVSLTCLVKGFYPSDIAVEWESNGGCPHMFPWCGGGQPENNYKTTPPVLDSDGSFFLYSKLTVDKSRWQQGNVFSCSVMHEALHNHYTQKSLSLSPGK	95.1

// each listed binder needs a value for ELISA score
1. L5 isolate with insertion SEQ ID NO: 445 (other) EPKSCDKTHTCPPCPAPELLGGPSVFLFPPKPKDTLMISRTPEVTCVVVDVSHEDPEVKFNWYVDGVEVHNAKTKPREEQYNSTYRVVSVLTVLHQDWLNGKEYKCKVSNKALPAPIEKTISKAKGQPREPQVYTLPPSRDELTKNQVSLTCLVKGFYPSDIAVEWESNGGCPLVRADCGGGQPENNYKTTPPVLDSDGSFFLYSKLTVDKSRWQQGNVFSCSVMHEALHNHYTQKSLSLSPGK
2. variant Fc-fragment Fc-5-104 (other, soluble elsewhere) EPKSCDKTHTCPPCPAPELLGGPSVFLFPPKPKDTLMISRTPEVTCVVVDVSHEDPEVKFNWYVDGVEVHNAKTKPREEQYNSTYRVVSVLTVLHQDWLNGKEYKCKVSNKALPAPIEKTISKAKGQPREPQVYTLPPSRDELTKNQVSLTCLVKGFYPSDIAVEWESNGGCGHEYMWCGGGQPENNYKTTPPVLDSDGSFFLYSKLTVDKSRWQQGNVFSCSVMHEALHNHYTQKSLSLSPGK

A.
1: 53.2; 2: 82.4
